test system: HCT116; test: MTT cell proliferation inhibition assay; assay type: cell-based; settings: Homo sapiens, HCT-116, 72 h
PROPERTY: pIC50
Value format note: pIC50 is -log10 of concentration (mol/L); just state the number.

Query (molecule): O=c1[nH]cc(F)c(=O)[nH]1 [5-FU, 5-Fluorouracil] ; field requested: pIC50 7.49

---

experiment: Pharmacokinetics after oral administration in rats; format: in vivo, Sprague-Dawley rats; settings: Sprague-Dawley, rat, plasma, po, 0.06 mmol/kg
PROPERTY: AUC(0-t) (µM·h)
Report the figure in µM·h without appending any unit label.

Name the recorded AUC(0-t) for O=c1[nH]cc(F)c(=O)[nH]1 [5-FU, 5-Fluorouracil] . 4.93
